tested on: Danio rerio Tg(wt1b:EGFP) embryo, pronephros; assay: pronephric angle neck segment to proximal convoluted tubule (mean of left and right), fold change vs DMSO control; higher = larger pronephric angle; conditions: 25 µM; exposure: 24-48 hpf
Where a name gives a salt, the structure may show the parent alone.
assayMetric: pronephric angle neck segment

>>> number("O=C(CCCCC(=O)Nc1c(I)cc(I)c(C(=O)O)c1I)Nc1c(I)cc(I)c(C(=O)O)c1I [Iodipamide]")
1.01
>>> number("COc1cc2nc(N3CCN(C(=O)C4CCCO4)CC3)nc(N)c2cc1OC (centres undefined) [Terazosin hydrochloride]")
0.988
>>> number("COCC(=O)Nc1c(I)c(C(=O)NCC(O)CO)c(I)c(C(=O)N(C)CC(O)CO)c1I (centres undefined) [Iopromide]")
0.97
>>> number("CC(=O)Oc1ccc(C(c2ccc(OC(C)=O)cc2)c2ccccn2)cc1")
1.01

----------
tested on: Danio rerio Tg(wt1b:EGFP) embryo, pronephros; test: glomerular separation, fold change vs DMSO control; higher = glomeruli further apart (abnormal); conditions: 25 µM; exposure: 24-48 hpf
Structures can show the parent of a compound that is named as a salt.
assayMetric: glomerular separation

>>> result("CNCCCC12CCC(c3ccccc31)c1ccccc12 [Maprotiline hydrochloride]")
1.28
>>> result("CCCc1ncc(C[n+]2ccccc2C)c(N)n1 [Amprolium hydrochloride]")
1.14
>>> result("Cc1cccc(CN2CCN(C(c3ccccc3)c3ccc(Cl)cc3)CC2)c1 (stereo not drawn) [Meclozine dihydrochloride]")
1.25
>>> result("NC[C@@H]1O[C@@H](O[C@H]2[C@H](O)[C@@H](O[C@H]3O[C@H](CO)[C@@H](O)[C@H](N)[C@H]3O)[C@H](N)C[C@@H]2N)[C@@H](O)[C@H](O)[C@H]1O [Kanamycin A sulfate]")
1.07
>>> result("CC(C)NCC(O)c1cc(O)cc(O)c1 (stereo not drawn) [Metaproterenol sulfate, orciprenaline sulfate]")
1.08
>>> result("CCCCc1ccc2[nH]c(NC(=O)OC)nc2c1 [Parbendazole]")
2.51
>>> result("CN(C)[C@@H]1C(O)=C(C(N)=O)C(=O)[C@@]2(O)C(O)=C3C(=O)c4c(O)ccc(Cl)c4[C@@](C)(O)[C@H]3C[C@@H]12 [Chlortetracycline hydrochloride]")
1.18
>>> result("CC(C(=O)O)c1ccc(C(=O)c2ccccc2)s1 (stereo not drawn) [Tiaprofenic acid]")
1.58

----------
test system: Danio rerio Tg(wt1b:EGFP) embryo, pronephros; experiment: glomerular separation, fold change vs DMSO control; higher = glomeruli further apart (abnormal); settings: 25 µM; exposure: 24-48 hpf
Where a name gives a salt, the structure may show the parent alone.
Quick reference for glomerular separation among some compounds
assayMetric: glomerular separation

>>> number("CCN(CCO)CCCC(C)Nc1ccnc2cc(Cl)ccc12 (stereo unspecified) [Hydroxychloroquine sulfate]")
1.03
>>> number("COC(=O)Nc1nc2cc(C(=O)c3ccc(F)cc3)ccc2[nH]1")
1.81
>>> number("N=C(N=C(N)N)N1CCOCC1 [Moroxidine hydrochloride]")
1.26
>>> number("CN(C)/N=N/c1[nH]cnc1C(N)=O")
0.922
>>> number("COC(=O)C1=C(C)NC(C)=C(C(=O)OCCN(C)Cc2ccccc2)C1c1cccc([N+](=O)[O-])c1 (stereo unspecified) [Nicardipine hydrochloride]")
1.13
>>> number("O=C(O)[C@H]1/C(=C/CO)O[C@@H]2CC(=O)N21 [Clavulanate potassium salt]")
0.835
>>> number("CC(C)Oc1ccc2c(=O)c(-c3ccccc3)coc2c1")
0.901
>>> number("COc1cccc2c1C(=O)c1c(O)c3c(c(O)c1C2=O)C[C@@](O)(C(=O)CO)C[C@@H]3O[C@H]1C[C@H](N)[C@H](O)[C@H](C)O1 [Doxorubicin hydrochloride]")
1.19
>>> number("c1ccc(C2CN3CCSC3=N2)cc1 (stereo unspecified) [Tetramisole hydrochloride]")
0.817
>>> number("C#C[C@]1(OC(C)=O)CC[C@H]2[C@@H]3CCC4=CC(=NO)CC[C@@H]4[C@H]3CC[C@@]21CC (mixture of isomers) [Norgestimate]")
2.81
>>> number("CCC(=O)OCC(=O)[C@@]1(OC(=O)CC)[C@H](C)C[C@H]2[C@H]3[C@H]([C@@H](O)C[C@@]21C)[C@@]1(C)C=CC(=O)C=C1C[C@H]3Cl [Alclometasone dipropionate]")
1.33
>>> number("CCC[C@@H]1C[C@@H](C(=O)N[C@@H]([C@H]2O[C@H](SC)[C@H](O)[C@@H](O)[C@H]2O)[C@H](C)Cl)N(C)C1 [Clindamycin hydrochloride]")
0.862
>>> number("O=C(O)c1cc(/N=N/c2ccc(S(=O)(=O)Nc3ccccn3)cc2)ccc1O")
0.959
>>> number("Cn1nnc2c(C(N)=O)ncn2c1=O [Temozolomide]")
0.665
>>> number("Cc1c(C)c2c(c(C)c1O)CCC(C)(C(=O)O)O2 (stereo unspecified)")
0.733
>>> number("CCOc1ccc(NC(C)=O)cc1")
1.14
